- tested on: T1, human OPGbp [143-317] (human, UniProt O14788 143-317)
- T1 construct: also called OPGL
- T1 sequence (looked up): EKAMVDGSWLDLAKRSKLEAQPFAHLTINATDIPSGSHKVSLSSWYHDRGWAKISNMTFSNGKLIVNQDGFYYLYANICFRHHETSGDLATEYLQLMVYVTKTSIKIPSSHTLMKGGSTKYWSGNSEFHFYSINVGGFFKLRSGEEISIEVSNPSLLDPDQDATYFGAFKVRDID
- procedure text: SPR (BIAcore), immobilized OPGbp [143-317]
pKd: −log10 of the molar value.
We use 8 as the dividing line for pKd: on or above the line is t, below is f.

Before answering, review these 8 worked examples.
“AT” antibody variant N98R (heavy chain CDR3) (antibody, name in Kabat numbering, V domains shown, not shown: human IgG1 CH1, hinge, CH2 and CH3) VH: QVQLVQSGAEVRKPGASVKVSCKASGYDFSNYAIHWVRQAPGQRLEWMGWINAGNGNTKFSQKFQGRITVTRDTAASTAYMELRSLRSEDTAVYYCARDSSRMVRGIIIAYYFDYWGQGTLVTVSS VL: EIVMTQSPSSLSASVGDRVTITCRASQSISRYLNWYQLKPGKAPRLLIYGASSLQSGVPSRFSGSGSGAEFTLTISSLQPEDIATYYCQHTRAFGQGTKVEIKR :: t
“AT” antibody variant N98H (heavy chain CDR3) (antibody, name in Kabat numbering, V domains shown, not shown: human IgG1 CH1, hinge, CH2 and CH3) VH: QVQLVQSGAEVRKPGASVKVSCKASGYDFSNYAIHWVRQAPGQRLEWMGWINAGNGNTKFSQKFQGRITVTRDTAASTAYMELRSLRSEDTAVYYCARDSSHMVRGIIIAYYFDYWGQGTLVTVSS VL: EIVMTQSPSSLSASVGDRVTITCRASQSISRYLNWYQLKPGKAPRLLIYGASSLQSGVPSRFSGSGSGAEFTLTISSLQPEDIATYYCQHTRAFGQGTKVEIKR :: t
“AT” antibody variant N98S (heavy chain CDR3) (antibody, name in Kabat numbering, V domains shown, not shown: human IgG1 CH1, hinge, CH2 and CH3) VH: QVQLVQSGAEVRKPGASVKVSCKASGYDFSNYAIHWVRQAPGQRLEWMGWINAGNGNTKFSQKFQGRITVTRDTAASTAYMELRSLRSEDTAVYYCARDSSSMVRGIIIAYYFDYWGQGTLVTVSS VL: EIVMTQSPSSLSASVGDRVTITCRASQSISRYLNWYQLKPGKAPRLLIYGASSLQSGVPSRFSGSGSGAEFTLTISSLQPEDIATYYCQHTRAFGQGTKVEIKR :: t
“AT” antibody variant N98P (heavy chain CDR3) (antibody, name in Kabat numbering, V domains shown, not shown: human IgG1 CH1, hinge, CH2 and CH3) VH: QVQLVQSGAEVRKPGASVKVSCKASGYDFSNYAIHWVRQAPGQRLEWMGWINAGNGNTKFSQKFQGRITVTRDTAASTAYMELRSLRSEDTAVYYCARDSSPMVRGIIIAYYFDYWGQGTLVTVSS VL: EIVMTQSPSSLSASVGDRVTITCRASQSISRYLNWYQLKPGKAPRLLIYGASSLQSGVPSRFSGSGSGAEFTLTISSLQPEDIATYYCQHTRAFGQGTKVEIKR :: t
“AT” antibody variant N98D (heavy chain CDR3) (antibody, name in Kabat numbering, V domains shown, not shown: human IgG1 CH1, hinge, CH2 and CH3) VH: QVQLVQSGAEVRKPGASVKVSCKASGYDFSNYAIHWVRQAPGQRLEWMGWINAGNGNTKFSQKFQGRITVTRDTAASTAYMELRSLRSEDTAVYYCARDSSDMVRGIIIAYYFDYWGQGTLVTVSS VL: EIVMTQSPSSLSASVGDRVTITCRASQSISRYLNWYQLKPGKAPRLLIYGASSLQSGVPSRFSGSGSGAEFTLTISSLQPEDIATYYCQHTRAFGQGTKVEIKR :: t
“AT” antibody variant N98M (heavy chain CDR3) (antibody, name in Kabat numbering, V domains shown, not shown: human IgG1 CH1, hinge, CH2 and CH3) VH: QVQLVQSGAEVRKPGASVKVSCKASGYDFSNYAIHWVRQAPGQRLEWMGWINAGNGNTKFSQKFQGRITVTRDTAASTAYMELRSLRSEDTAVYYCARDSSMMVRGIIIAYYFDYWGQGTLVTVSS VL: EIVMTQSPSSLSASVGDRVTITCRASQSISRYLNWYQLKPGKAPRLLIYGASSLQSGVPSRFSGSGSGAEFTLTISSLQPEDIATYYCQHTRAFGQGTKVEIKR :: f
“AT” antibody variant N98Y (heavy chain CDR3) (antibody, name in Kabat numbering, V domains shown, not shown: human IgG1 CH1, hinge, CH2 and CH3) VH: QVQLVQSGAEVRKPGASVKVSCKASGYDFSNYAIHWVRQAPGQRLEWMGWINAGNGNTKFSQKFQGRITVTRDTAASTAYMELRSLRSEDTAVYYCARDSSYMVRGIIIAYYFDYWGQGTLVTVSS VL: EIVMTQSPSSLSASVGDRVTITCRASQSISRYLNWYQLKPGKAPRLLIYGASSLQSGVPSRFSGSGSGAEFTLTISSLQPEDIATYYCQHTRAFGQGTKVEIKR :: f
“AT” antibody variant N98F (heavy chain CDR3) (antibody, name in Kabat numbering, V domains shown, not shown: human IgG1 CH1, hinge, CH2 and CH3) VH: QVQLVQSGAEVRKPGASVKVSCKASGYDFSNYAIHWVRQAPGQRLEWMGWINAGNGNTKFSQKFQGRITVTRDTAASTAYMELRSLRSEDTAVYYCARDSSFMVRGIIIAYYFDYWGQGTLVTVSS VL: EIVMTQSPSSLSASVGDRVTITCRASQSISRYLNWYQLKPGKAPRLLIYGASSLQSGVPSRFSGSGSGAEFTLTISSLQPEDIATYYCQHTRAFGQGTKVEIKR :: f

Kindly review the next binder as well.
Is the recorded value of pKd equal to or greater than 8 for this binder? “AT” antibody variant N98G (heavy chain CDR3) (antibody, name in Kabat numbering, V domains shown, not shown: human IgG1 CH1, hinge, CH2 and CH3) VH: QVQLVQSGAEVRKPGASVKVSCKASGYDFSNYAIHWVRQAPGQRLEWMGWINAGNGNTKFSQKFQGRITVTRDTAASTAYMELRSLRSEDTAVYYCARDSSGMVRGIIIAYYFDYWGQGTLVTVSS VL: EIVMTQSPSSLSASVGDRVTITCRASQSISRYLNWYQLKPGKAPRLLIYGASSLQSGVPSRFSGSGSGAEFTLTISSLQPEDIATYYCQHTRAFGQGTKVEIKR
f
